Provide the recorded growth for the entries that follow.
# Test system: NCI-H23 lung
# assayInfo: NCI-60 one-dose screen, 48 h (100 = growth as untreated, 0 = no growth, -100 = all killed)
# cond: 10 µM
The panel holds about 83,000 compounds, 20% with a hit somewhere; the sample as a whole holds those more often.
Answers are plain numbers, in %.

molecule: NS(=O)(=O)Oc1ccc2c(ccn2C(=O)C23CC4CC(CC(C4)C2)C3)c1
resultUnit: %
value: 97
//
molecule: Cc1ccc(C)c(COc2cc(NC(=O)c3ccc4c(c3)OCO4)ccc2N(C)S(C)(=O)=O)c1
resultUnit: %
value: 9.96
//
molecule: CC(=O)[C@@]12O[C@](C)(c3ccccc3)O[C@@H]1CC1C3CCC4=CC(=O)CC[C@]4(C)C3CC[C@@]12C (stereo partly drawn)
resultUnit: %
value: 54.4

# per-item lookup of growth; items listed below
1. CO[C@H]1CC(O[C@@H]2/C(C)=C/C[C@@H]3C[C@@H](C[C@]4(C=C[C@H](C)[C@@H](C5CCCCC5)O4)O3)OC(=O)[C@@H]3C=C(C)[C@@H](O)[C@H]4OC/C(=C\C=C\[C@@H]2C)[C@]43O)O[C@@H](C)C1O[C@H]1C[C@H](OC)[C@@H](O)[C@H](C)O1 (stereo partly drawn)
2. Cc1[nH]c2ccccc2c1/C=N/Nc1ncnc2sc3c(c12)CCN(CC(=O)OC(C)(C)C)C3
3. IC(I)I
4. COC(=O)C1(O)NC(=C(C#N)C#N)C(C#N)=C1C(=O)c1ccc(OC)c(OC)c1 (stereo not drawn)
5. N#CCc1csc(Cc2ccccc2)n1

-63.7
91.6
102
103
97.2

---

# System: DU-145 prostate
# assayInfo: NCI-60 one-dose screen, 48 h (100 = growth as untreated, 0 = no growth, -100 = all killed)
# cond: 10 µM
This is part of a sample that, as a whole, favours compounds with a hit. Of some 83,000 tested, about 20% had one in any assay.
recordedMetric: growth (%)
Answers are plain numbers, in %.

In the examples that follow, each entry is paired with its recorded growth.
molecule: CCOC(=O)C(C)(c1ccccc1)c1ccccc1
recordedMetric: growth
value: 106

molecule: COc1ccc(-c2nn(-c3cccc(Cl)c3)cc2-c2nc(N)[nH]c(=O)c2C#N)cc1
recordedMetric: growth
value: 102

molecule: CC(=O)Oc1cc(OC(C)=O)c2ccccc2c1OC(C)=O
recordedMetric: growth
value: 67

molecule: N#Cc1c(-c2ccc(Cl)cc2)csc1NC(=O)Nc1ccc(Cl)c(C(F)(F)F)c1
recordedMetric: growth
value: 5.84

molecule: CC(C)(C)c1ccc(S(=O)(=O)N[C@H]2CC[C@H]3[C@@H]4CCc5cc(O)c([N+](=O)[O-])cc5[C@H]4CC[C@]23C)cc1
recordedMetric: growth
value: 67.4

# per-item lookup of growth; items listed below
1. C[C@@H](O)[C@H]1C(=O)N2C(C(=O)O)=C(SC3CN[C@H](C(=O)N(C)C)C3)[C@H](C)[C@H]12 (some centres undefined)
2. NC(N)=N/N=C(\N=Nc1ccccc1)c1ccc(Cl)cc1
3. NC1=CC(=O)C(=O)c2cccnc21
4. COc1ccc2c(c1)C(=O)/C(=C/c1ncc([N+](=O)[O-])n1C)O2
5. O=c1c(Br)ccc(Br)cc1Br
6. COc1ccc(-c2nn(-c3cccc(Cl)c3)cc2-c2c(C#N)c(=O)n3[nH]c(-c4ccc(C)cc4)nc3c2C#N)cc1
7. O=C1C=C(Nc2cccc(Br)c2)c2ccccc2C1=O
8. CCN(CC)CCCC(C)Nc1c2ccc(Cl)cc2nc2ccc(OC)cc12 (centres undefined)

110
47.3
28.3
-13.6
-72.3
28.4
22.4
16.1

# per-item lookup of growth; items listed below
1. COc1cc(-c2nn(-c3cccc(NC(=O)CCNc4ccc(N5CCOCC5)cc4)c3)cc2-c2ccncc2)ccc1Cl
2. CCCCN(CCCC)C(=O)[C@H](CC)[C@@H]1CC[C@@H](C)[C@@H]([C@H](C)[C@@H](O)[C@@H](C)C(=O)[C@H](CC)C2O[C@]3(C=C[C@@H](O)[C@]4(CC[C@@](C)([C@H]5CC[C@](O)(CC)[C@H](C)O5)O4)O3)[C@H](C)C[C@@H]2C)O1 (some centres undefined)

[29.2, 35.4]

# per-item lookup of growth; items listed below
1. COc1ccc(-c2csc(NC(=O)c3ccc(Cc4n[nH]c(=O)c5cccnc45)cc3)n2)cc1
2. COc1ccccc1-n1c(-c2sc(NC(C)=O)nc2C)n[nH]c1=S
3. COc1ccc(-c2nc(-c3nc4ccc(C)cc4[nH]3)cc3c2[nH]c2ccccc23)cc1
4. CC1C(=NC(=O)c2cnccn2)C(C)C(c2ccc(Cl)cc2)NC1c1ccncc1 (centres undefined)

108
119
41.4
114
